Endpoint summary: Ki, system: the protein given by its sequence, multiple sources combined.
Target protein (sequence): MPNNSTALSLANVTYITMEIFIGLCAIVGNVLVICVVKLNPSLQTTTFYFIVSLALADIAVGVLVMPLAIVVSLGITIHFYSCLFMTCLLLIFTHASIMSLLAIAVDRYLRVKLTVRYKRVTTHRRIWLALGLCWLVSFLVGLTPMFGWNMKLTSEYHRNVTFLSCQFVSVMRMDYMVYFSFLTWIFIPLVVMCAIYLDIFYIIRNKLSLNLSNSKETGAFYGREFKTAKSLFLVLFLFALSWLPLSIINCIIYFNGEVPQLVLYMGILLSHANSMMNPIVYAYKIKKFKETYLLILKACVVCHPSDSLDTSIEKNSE

Consider the worked cases shown below.
{"CHEMICAL_STRING": "Cn1c(=O)c2c(nc3n2CCN(C2Cc4ccccc4C2)C3)n(C)c1=O", "Ki": "> 3000 nM"}
{"CHEMICAL_STRING": "Nc1ncnc2c1ncn2[C@@H]1O[C@H](C(=S)NC2CC2)[C@@H](O)[C@H]1O", "Ki": "2280 nM"}
{"CHEMICAL_STRING": "Cc1ccccc1CNc1nc(Cl)nc2c1ncn2[C@@H]1O[C@H](C(=O)NCC2CC2)[C@@H](O)[C@H]1O", "Ki": "29.5 nM"}
{"CHEMICAL_STRING": "Nc1ncnc2c1ncn2C1CCCCC1", "Ki": "> 100000 nM"}
{"CHEMICAL_STRING": "CCNC(=O)[C@H]1O[C@@H](n2cnc3c(Nc4ccc(OCC(=O)Nc5ccc(OC)cc5)cc4)ncnc32)[C@H](O)[C@@H]1O", "Ki": "25.3 nM"}

The compound CC(C)Cn1c(=O)c2c(nc3ccccn32)n(Cc2ccccc2)c1=O showed Ki equal to 6.3 nM

The compound CN1CCN(c2nc(-c3ccc(Cl)cc3)nc3[nH]cnc23)CC1 showed Ki equal to 39.8 nM

The compound CC(C)Nc1nc(NC(=O)Cc2ccccc2)n2nc(-c3ccco3)nc2n1 showed Ki equal to 257 nM

The compound CN(Cc1ccccc1)c1nc2nn(C)cc2c2nc(-c3ccco3)nn12 showed Ki equal to 18 nM

The compound CCNC(=O)[C@H]1O[C@@H](n2cnc3c(N)nc(NCCc4ccc(CCC(=O)N[C@@H](Cc5c[nH]c6ccccc56)C(=O)OC)cc4)nc32)[C@H](O)[C@@H]1O showed Ki equal to 140 nM

The compound CCCC(=O)Nc1nnc(-c2ccccc2)[nH]1 showed Ki equal to 200 nM

The compound CCOC(=O)c1nc(NC(=O)c2ccc(C(F)(F)F)cc2)nc2nn(CCc3ccccc3)cc12 showed Ki equal to 5800 nM

The compound Cn1cc2c(nc(NCc3ccc(F)cc3)n3nc(-c4ccco4)nc23)n1 showed Ki equal to 4.93 nM

The compound O=C(Nc1nc(Cl)c2cn(CCc3ccccc3)nc2n1)c1ccc(C(F)(F)F)cc1 showed Ki equal to 2800 nM

The compound CC(C)Cn1cnc2ncnc(N)c21 showed Ki equal to > 100000 nM

The compound Oc1nc2ccc(Cl)cc2n2nc(-c3ccoc3)nc12 showed Ki equal to 78 nM

----------
Target chain: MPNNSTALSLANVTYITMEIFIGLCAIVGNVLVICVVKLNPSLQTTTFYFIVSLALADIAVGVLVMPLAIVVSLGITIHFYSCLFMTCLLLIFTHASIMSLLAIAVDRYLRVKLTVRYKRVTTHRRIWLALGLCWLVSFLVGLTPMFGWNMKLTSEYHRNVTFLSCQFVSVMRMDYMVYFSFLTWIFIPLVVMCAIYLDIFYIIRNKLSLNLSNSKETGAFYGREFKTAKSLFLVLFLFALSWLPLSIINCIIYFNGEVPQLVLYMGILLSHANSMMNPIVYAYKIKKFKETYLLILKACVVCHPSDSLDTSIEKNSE
Endpoint summary: Ki, system: the protein given by its sequence, multiple sources combined.
Give a bare numeral; the unit nM is implied.

{"CHEMICAL_STRING": "CCOC(=O)c1nc2c(O)nc3ccccc3n2n1", "UNIT_TAG": "nM", "Ki": 70.8}

The compound CONc1nc(Cl)nc2c1ncn2[C@@H]1O[C@H](c2ccon2)[C@@H](O)[C@H]1O showed Ki equal to 31

The compound O=C(Nc1ncc(C(=O)O)c2nc(-c3ccco3)nn12)NC1CCCCC1 showed Ki equal to 59400

The compound CCCOC(=O)c1c(-c2ccccc2)nc(CC)c(C(=O)SCCF)c1CCC showed Ki equal to 55.1

The compound COc1ccc(-c2nc(NC(=O)c3ccccc3)c3nn(-c4ccccc4)cc3n2)cc1 showed Ki equal to 6.42

The compound Cc1cc2nc(-c3cnc4ccccc4n3)[nH]c2cc1C showed Ki equal to 370

The compound O=C(Nc1nc2c([N+](=O)[O-])cccc2n2c(=O)n(-c3ccccc3)nc12)C(c1ccccc1)c1ccccc1 showed Ki equal to 14.9

The compound Nc1nc(-c2cccs2)nc2cn(-c3ccccc3O)nc12 showed Ki equal to 209
